Target: NGF (Mus musculus, UniProt P01139)
Construct: homodimer
Sequence (P01139 122-239): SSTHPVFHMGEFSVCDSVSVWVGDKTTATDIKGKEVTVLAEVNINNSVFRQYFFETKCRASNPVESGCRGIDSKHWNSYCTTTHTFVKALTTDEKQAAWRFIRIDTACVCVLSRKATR
Assay: NGF protomer crosslinking with BS3 (NGF conformation), metal ions
Assay type: biochemical
Conditions: 100 μM
Observable: NGF Protomer Conformation (active/inactive)

[Pd+2] : active
[Zn+2] : active
[Ni+2] : inactive
[Cu+2] : active
[Mn+2] : inactive

Task: Please report NGF Protomer Conformation (active/inactive) for the following compound: [Pt+2]
Output: active

Task: Identify NGF Protomer Conformation (active/inactive) associated with the compound [Au+3]
Output: active
